Where do these numbers come from? They come from paper PMC12102759.

B1: NEK9 peptide 738-753 (Serine/threonine-protein kinase Nek9), 16-mer library wild type / NSP9 (ORF1ab Nsp9, residues 4141-4253) (parent)
chain 1: SGLSIGTVFQSSSPGG
chain 2: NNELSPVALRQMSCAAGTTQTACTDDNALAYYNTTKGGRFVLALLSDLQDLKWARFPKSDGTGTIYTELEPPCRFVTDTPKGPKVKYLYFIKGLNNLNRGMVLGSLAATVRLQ

Variants of: B1
conditions: with NSP9 (ORF1ab Nsp9, residues 4141-4253); bait immobilised on MaxiSorp plates (10 µg), library pre-cleared on GST, 2 h binding at 4 °C, five washes; one round per day, days 1-4; value from days 2 and 3; keep out of graded; scale: average fractional NGS count over selection days 2 and 3
result.type: screen value
I only need the number, thanks.

Quickly give me recorded screen value for chain 1 SGLSIGTVFQSISPGG [chain 1 S12I]
0

Entry chain 1 EGLSIGTVFQSSSPGG [chain 1 S1E] needs its screen value filled in; supply it.
2.09e-05

Write down screen value measured for item chain 1 SGLSIGTVFQSSSPWG [chain 1 G15W]
0

For the variant chain 1 SGLSIGDVFQSSSPGG [chain 1 T7D] , give its reported screen value.
0

Item chain 1 SGLSIGTQFQSSSPGG [chain 1 V8Q] : provide screen value
0.000101

Identify measured screen value associated with chain 1 SGLSIGTVFQDSSPGG [chain 1 S11D]
2.69e-05

Hello, please tell me recorded screen value for this one: chain 1 SGLSIGTDFQSSSPGG [chain 1 V8D]
0.000118

Identify measured screen value corresponding to chain 1 SGLKIGTVFQSSSPGG [chain 1 S4K]
0

Provide screen value value for the following variant: chain 1 SILSIGTVFQSSSPGG [chain 1 G2I]
0

Provide only the value of recorded screen value for chain 1 SGLWIGTVFQSSSPGG [chain 1 S4W]
0

Supply screen value value. Item: chain 1 SGLSIGTVFQNSSPGG [chain 1 S11N]
0
